Answer each item with its documented inhibition at 1 µM.
# subject_of_test: human recombinant adrenergic α2B receptor (Homo sapiens)
# Construct: expressed in transfected cells; host or cells: CHO-K1 cells
# Sequence (P18089 1-450): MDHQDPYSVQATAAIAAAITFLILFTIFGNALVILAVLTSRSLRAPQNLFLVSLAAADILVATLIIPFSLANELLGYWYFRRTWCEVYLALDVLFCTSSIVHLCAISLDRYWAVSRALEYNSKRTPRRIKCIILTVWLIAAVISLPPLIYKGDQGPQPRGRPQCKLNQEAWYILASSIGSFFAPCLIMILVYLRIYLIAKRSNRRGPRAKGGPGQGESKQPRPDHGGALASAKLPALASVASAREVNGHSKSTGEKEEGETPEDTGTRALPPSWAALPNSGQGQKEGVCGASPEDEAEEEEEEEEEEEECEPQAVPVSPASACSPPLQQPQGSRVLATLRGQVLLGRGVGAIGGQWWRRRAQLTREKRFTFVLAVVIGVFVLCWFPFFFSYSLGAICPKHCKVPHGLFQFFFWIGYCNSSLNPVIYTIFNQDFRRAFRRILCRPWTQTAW
# procedure_summary: Adrenergic α2B radioligand binding ([3H]Rauwolscine)
# particulars: 1 μM; read-out: Adrenergic α2B, inhibition of ligand binding (1 μM)
Return type: number; implicit unit %.

What value of inhibition at 1 µM has been reported for the following molecule? CN1C2CCC1c1c(n(CCC#N)c3ccc(Cl)cc13)C2 (stereo not drawn) 57

Quick one: Cc1ccc2c(c1)c1c(n2CC(O)c2ccc(C)nc2)CC2CCC1N2C (stereo not drawn) 67

Quick one: Cc1ccc2c(c1)c1c(n2CCc2ccccc2)CC2CCC1N2C (stereo not drawn) 98

Quick one: CN1C2CCC1c1c(n(CCc3cncc(Cl)c3)c3ccc(Cl)cc13)C2 (stereo not drawn) 98

Quick one: C/C(=C\n1c2c(c3cc(Cl)ccc31)C1CCC(C2)N1C)c1ccc(Cl)cc1 (stereo not drawn) 103

Quick one: CN1[C@@H]2CC[C@H]1c1c(n(CCc3ccc(F)cc3)c3ccc(F)cc13)C2 102

Quick one: CN1[C@@H]2CC[C@H]1c1c(n(CCc3ccc(C(F)(F)F)nc3)c3ccccc13)C2 103

Quick one: Cc1ccc2c(c1)c1c(n2CCc2nc(-c3ccccc3)cs2)CC2CCC1N2C (stereo not drawn) 107

Quick one: CN1C2CCC1c1c(n(CCC(N)=O)c3ccc(Cl)cc13)C2 (stereo not drawn) 73

Quick one: CN1C2CCC1c1c(n(CCC(=O)N3CCCC3)c3ccc(Cl)cc13)C2 (stereo not drawn) 30

Quick one: CN1C2CCC1c1c(n(CCCc3ccc(Cl)cc3)c3ccc(Cl)cc13)C2 (stereo not drawn) 54

Quick one: CN1C2CCC1c1c(n(CCC(=O)N3CCSCC3)c3ccc(Cl)cc13)C2 (stereo not drawn) 10

Quick one: CN1C2CCC1c1c(n(CCc3ccc(C(F)(F)F)nc3)c3cc(F)c(Cl)cc13)C2 (stereo not drawn) 75

Quick one: Cc1ccc(CCn2c3c(c4ccccc42)[C@@H]2CC[C@H](C3)N2C)cn1 42

Quick one: CN1[C@@H]2CC[C@H]1c1c(n(CC(=O)N3CCCCC3)c3ccccc13)C2 76

Quick one: CN1C2CCC1c1c(n(CC(=O)c3ccc(Cl)cc3)c3ccc(Cl)cc13)C2 (stereo not drawn) 96

Quick one: COc1ccc(C(C)(O)Cn2c3c(c4cc(C)ccc42)C2CCC(C3)N2C)cc1F (stereo not drawn) 95

Quick one: COc1ccc(CCn2c3c(c4cc(Cl)ccc42)C2CCC(C3)N2C)cc1 (stereo not drawn) 98
